Measured pIC50, listed per entry.
- ASSAY_TARGET: Protein AF-9 (Homo sapiens, UniProt P42568)
- Sequence (P42568 whole entry, the tested form may be a part): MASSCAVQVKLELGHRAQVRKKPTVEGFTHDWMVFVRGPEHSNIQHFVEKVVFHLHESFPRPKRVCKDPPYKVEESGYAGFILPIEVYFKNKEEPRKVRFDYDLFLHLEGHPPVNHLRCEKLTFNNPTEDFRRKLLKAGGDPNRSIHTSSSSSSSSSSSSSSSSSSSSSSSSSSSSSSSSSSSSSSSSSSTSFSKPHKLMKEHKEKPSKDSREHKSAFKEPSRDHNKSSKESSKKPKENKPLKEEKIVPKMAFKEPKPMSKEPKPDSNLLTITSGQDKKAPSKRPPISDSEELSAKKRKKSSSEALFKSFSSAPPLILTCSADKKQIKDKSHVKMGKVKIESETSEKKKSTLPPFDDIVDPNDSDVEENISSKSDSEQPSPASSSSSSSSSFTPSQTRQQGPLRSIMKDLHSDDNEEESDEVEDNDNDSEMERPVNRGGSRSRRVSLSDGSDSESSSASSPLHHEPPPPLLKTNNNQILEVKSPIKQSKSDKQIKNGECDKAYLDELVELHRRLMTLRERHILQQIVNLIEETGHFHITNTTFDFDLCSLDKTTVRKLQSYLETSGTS
- TEST_PROTOCOL: Displacement of N-Flu-DOT1L from MBP-tagged AF9 (unknown origin) (487 to 568 residues) expressed in Escherichia coli BL21(DE3) measured after 3 hrs by fluorescence polarization assay
pIC50: −log10 of the molar value. Square brackets hold non-standard residues; d marks the D form. Peptide text beside a SMILES is read from it. * marks the point of attachment. X4 = Cn1cc(-c2ccccc2)nc1[C@@H]1CCCN1*; Ala(cPent) = N[C@@H](CC1CCCC1)C(=O)O; Dap = NC[C@H](N)C(=O)O
EXPERIMENTAL_ENDPOINT: pIC50

# COMPOUND, EXPERIMENTAL_ENDPOINT, REPORTED_RESULT
records = [
    ("CC[C@H](C)[C@H](NC(=O)[C@H](CO)NC(=O)[C@H](CC(C)C)NC(=O)[C@@H]1CCCN1C(=O)[C@H](CC(C)C)NC(C)=O)C(=O)N1CCC[C@H]1C(=O)N[C@@H](CC(C)C)C(=O)N(C)C (Ac-LPLSIPL-NMe2)", "pIC50", 5.19),
    ("CC[C@H](C)[C@H](NC(=O)[C@H](CO)NC(=O)[C@@H](NC(=O)[C@@H]1CCCN1C(=O)[C@H](CC(C)C)NC(C)=O)C(C)C)C(=O)N1CCC[C@H]1C(=O)N[C@@H](CC(C)C)C(=O)N(C)C (Ac-LPVSIPL-NMe2)", "pIC50", 5.96),
    ("CC(=O)N[C@@H](CC(C)C)C(=O)N1CCC[C@H]1C(=O)N[C@H](C(=O)N[C@@H](CN)C(=O)N[C@@H](CC1CCCC1)C(=O)N1CCC[C@H]1c1nc(-c2ccccc2)cn1C)C(C)C (Ac-LPV[Dap][Ala(cPent)]-X4)", "pIC50", 6.43),
]
